System: Fer (mouse);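 note: 11-residue human phosphosite peptides and single-mutation variants displayed on the E. coli surface, counted by deep sequencing, each peptide's frequency after selection divided by its frequency in the unselected input library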;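 note: frequency after pTyr selection over input frequency; kinase dosed for 20-30% of maximal phosphorylation in three min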
Assay: phosphorylation enrichment, bacterial display (enrichment ratio); higher = better substrate or ligand; peptides without Tyr show the background
phosphorylation enrichment of 0.5 or higher: satisfied. Under 0.5: not satisfied.

Ask: Quick check, phosphorylation enrichment >= 0.5? FGRTFYNQAIM [MCCC2_Y196]
Result: not satisfied

Ask: Quick check, phosphorylation enrichment >= 0.5? GSERRYSREGG [PTPRN2_Y139]
Result: not satisfied

Ask: Quick check, phosphorylation enrichment >= 0.5? WQQQSYLGSGI [CTNNB1_Y30_D32G]
Result: not satisfied

Ask: Quick check, phosphorylation enrichment >= 0.5? ERSMSYCDESR [SMG1_Y143_S144C]
Result: not satisfied

Ask: Quick check, phosphorylation enrichment >= 0.5? YRASYYRKGGC [ALK_Y1283]
Result: satisfied

Ask: Quick check, phosphorylation enrichment >= 0.5? IQRSLYDCPAS [PDGFRA_Y762_R764C]
Result: satisfied

Ask: Quick check, phosphorylation enrichment >= 0.5? FQNGMYGLHQD [SGSH_Y89_H84Y_YF]
Result: not satisfied

Ask: Quick check, phosphorylation enrichment >= 0.5? DRLASYLDKAR [KRT14_Y129_V133A]
Result: not satisfied

Ask: Quick check, phosphorylation enrichment >= 0.5? HFGNNYRDVLQ [MACC1_Y803_YF]
Result: satisfied

Ask: Quick check, phosphorylation enrichment >= 0.5? LKSEMYQKLLK [RGS13_Y146]
Result: not satisfied

Ask: Quick check, phosphorylation enrichment >= 0.5? SLDHPYEKPRK [INAVA_Y333]
Result: not satisfied

Ask: Quick check, phosphorylation enrichment >= 0.5? RGRKVYLEDGF [PRIM2_Y201]
Result: satisfied
